// reported EC50 per item
Target: T1, human PVRIG expressed on cells (human, UniProt Q6DKI7 41-326)
T1 construct: whole, on cells; also called Human PVRIG FACS; cells overexpressing human PVRIG
T1 sequence (looked up): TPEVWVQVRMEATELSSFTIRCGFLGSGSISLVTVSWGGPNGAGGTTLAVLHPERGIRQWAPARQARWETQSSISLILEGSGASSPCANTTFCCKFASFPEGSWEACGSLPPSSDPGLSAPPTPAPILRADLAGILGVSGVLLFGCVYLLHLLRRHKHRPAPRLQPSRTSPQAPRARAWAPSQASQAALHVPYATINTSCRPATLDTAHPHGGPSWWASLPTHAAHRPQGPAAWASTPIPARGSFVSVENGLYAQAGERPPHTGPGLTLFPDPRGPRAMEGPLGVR
Assay: FACS, HEK293 cells overexpressing target
Description: The expression plasmid carrying human or cynomolgus monkey PVRIG gene sequence was transfected into HEK293 cells, and the over-expressing stable transfection monoclonal cell strain was obtained by antibiotic screening and infinite dilution. Overexpressing cells were seeded into a 96-well plate at 2×10⁵ cells/per well. […] Binding of the humanized anti-PVRIG antibodies to human or cynomolgus monkey PVRIG was detected by using a flow cytometer according to the method of Example 5.
ENDPOINT: EC50

• humanized anti-PVRIG antibody 39H3 (antibody, human IgG4 S228P, F234A L235A, V domains shown) VH: EVQLVESGGGLVQPGGSLRLSCAASGYTFSTDCMGWFRQAPGKGLEGVAHIDSDGIPRYVESVKGRFTISQDHAKNSLYLQMNSLRAEDTAVYYCVVGFKFGDYCAPNDWGQGTMVTVSS = 5 pM
• humanized anti-PVRIG antibody 39H1 (antibody, human IgG4 S228P, F234A L235A, V domains shown) VH: EVQLVESGGGLVQPGGSLRLSCAASGFTFSTDCMGWFRQAPGKGLEGVAHIDSDGIPRYVESVKGRFTISRDNAKNSLYLQMNSLRAEDTAVYYCVVGFKFGDYCAPNDWGQGTMVTVSS = 4 pM
• humanized anti-PVRIG antibody 151H9 (antibody, human IgG4 S228P, F234A L235A, V domains shown) VH: HVQLVESGGGLVQPGGSLRLSCVASASGFTYRPYCMAWFRQAPGKGLEAVAGIDIFGGTTYADSVKGRFTASRDNAGFSLYLQMNSLRAEDTAVYYCAAGDSPDGRCPPLGQGLNYWGQGTMVTVSS = 4 pM
• humanized anti-PVRIG antibody 20H4 (antibody, human IgG4 S228P, F234A L235A, V domains shown) VH: EVQLVESGGGLVQPGGSLRLSCAASGYTSRTDCMGWFRQAPGKGLEGVAHIDSDGIPRYVDSVKGRFTISQDHAKNSLYLQMNSLRAEDTAVYYCVVGFKFDEDYCAPNDWGQGTMVTVSS = 8 pM
• humanized anti-PVRIG antibody 151H4 (antibody, human IgG4 S228P, F234A L235A, V domains shown) VH: EVQLVESGGGLVQPGGSLRLSCVASASGFTYRPYCMAWFRQAPGKGLEAVAGIDIFGGTTYADSVKGRFTISRDNAKNSLYLQMNSLRAEDTAVYYCAAGDSPDGRCPPLGQGLNYWGQGTMVTVSS = 240 pM
• humanized anti-PVRIG antibody 20H3 (antibody, human IgG4 S228P, F234A L235A, V domains shown) VH: EVQLVESGGGLVQPGGSLRLSCAASGYTFSTDCMGWFRQAPGKGLEGVAHIDSDGIPRYVDSVKGRFTISQDHAKNSLYLQMNSLRAEDTAVYYCVVGFKFDEDYCAPNDWGQGTMVTVSS = 6 pM
• humanized anti-PVRIG antibody 39H4 (antibody, human IgG4 S228P, F234A L235A, V domains shown) VH: EVQLVESGGGLVQPGGSLRLSCAASGYTSRTDCMGWFRQAPGKGLEGVAHIDSDGIPRYVESVKGRFTISQDHAKNSLYLQMNSLRAEDTAVYYCVVGFKFGDYCAPNDWGQGTMVTVSS = 5 pM
• humanized anti-PVRIG antibody 38H2 (antibody, human IgG4 S228P, F234A L235A, V domains shown) VH: EVQLVESGGGVVQPGGSLRLSCAASGFTFSPSDMAWFRQAPGKGLEGVATISAAGRLTYYTDSVRGRFTISRDNSKNTLYLQMNSLRAEDTAVYYCAADFAGGSSLFADYKYWGQGTMVTVSS = 88 pM
